Value source: ChEMBL document CHEMBL2429786

- assayTarget: 5-hydroxytryptamine receptor 1A (Homo sapiens)
- Sequence (P08908 whole entry): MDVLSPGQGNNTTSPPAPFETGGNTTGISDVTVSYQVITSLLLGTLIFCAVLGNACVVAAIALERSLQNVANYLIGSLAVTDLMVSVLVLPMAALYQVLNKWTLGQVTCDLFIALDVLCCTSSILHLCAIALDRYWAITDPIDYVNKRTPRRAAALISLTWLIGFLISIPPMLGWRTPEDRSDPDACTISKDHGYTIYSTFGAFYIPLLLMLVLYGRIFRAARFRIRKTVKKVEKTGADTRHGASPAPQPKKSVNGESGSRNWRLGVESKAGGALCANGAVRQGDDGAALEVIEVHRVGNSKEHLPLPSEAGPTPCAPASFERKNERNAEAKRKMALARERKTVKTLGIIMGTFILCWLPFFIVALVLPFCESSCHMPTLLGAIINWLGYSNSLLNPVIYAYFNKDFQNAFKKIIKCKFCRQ
- assayComment: Agonist activity at human 5-HT1A receptor expressed in human HeLa cells assessed as inhibition of forskolin-stimulated cAMP formation after 10 mins by RIA
- Type: functional, cell-based
testReadout: pEC50
Reminder that pEC50 means the negative base-10 logarithm of the concentration expressed in mol/L.

Some molecules with recorded pEC50:
COc1ccccc1OCCNCCCCN1C(=O)C2CCCN2C1=O.Cl (stereo not drawn) | 7.64
Cl.O=C1C2CCCN2C(=O)N1CCCCNCCOc1cccc2ccccc12 (stereo not drawn) | 7.35

Then there is this molecule:
input: Give a short answer stating reported pEC50 for CCOc1ccccc1OCCNCCCCN1C(=O)C2CCCN2C1=O.Cl (stereo not drawn) .
output: 7.72

----------
- assayComment: Half life in human liver microsomes at 1 to 5 uM by HPLC-MS analysis
- Type: ADME, Microsome
testReadout: half-life at up to 5 µM
Give the value; after it, write the unit.

Cl.O=C1C2CCCN2C(=O)N1CCCCNCCOc1ccccc1 (stereo not given) | 2.52 h

input: Determine from records and report half-life at up to 5 µM for Cl.O=C1C2CCCN2C(=O)N1CCCCNCCOc1cccc2ccccc12 (stereo not given)
output: 2.05 h

input: Quick one: give measured half-life at up to 5 µM for COc1ccccc1OCCNCCCCN1C(=O)C2CCCN2C1=O.Cl (stereo not given)
output: 3.95 h

input: Retrieve half-life at up to 5 µM measured for CCc1ccccc1OCCNCCCCN1C(=O)C2CCCN2C1=O.Cl (stereo not given) and print it.
output: 2.28 h

input: Provide only the value of recorded half-life at up to 5 µM for CCOc1ccccc1OCCNCCCCN1C(=O)C2CCCN2C1=O.Cl (stereo not given)
output: 2.98 h

----------
- assayComment: Half life in mouse liver microsomes at 1 to 5 uM by HPLC-MS analysis
- Type: ADME, Microsome
testReadout: half-life at up to 5 µM (min)
Field: numeric (min). Do not append units.

input: Report half-life at up to 5 µM for CCOc1ccccc1OCCNCCCCN1C(=O)C2CCCN2C1=O.Cl (stereo unspecified)
output: 29.5

----------
- assayTarget: 5-hydroxytryptamine receptor 2A (Rattus norvegicus)
- Sequence (P14842 whole entry): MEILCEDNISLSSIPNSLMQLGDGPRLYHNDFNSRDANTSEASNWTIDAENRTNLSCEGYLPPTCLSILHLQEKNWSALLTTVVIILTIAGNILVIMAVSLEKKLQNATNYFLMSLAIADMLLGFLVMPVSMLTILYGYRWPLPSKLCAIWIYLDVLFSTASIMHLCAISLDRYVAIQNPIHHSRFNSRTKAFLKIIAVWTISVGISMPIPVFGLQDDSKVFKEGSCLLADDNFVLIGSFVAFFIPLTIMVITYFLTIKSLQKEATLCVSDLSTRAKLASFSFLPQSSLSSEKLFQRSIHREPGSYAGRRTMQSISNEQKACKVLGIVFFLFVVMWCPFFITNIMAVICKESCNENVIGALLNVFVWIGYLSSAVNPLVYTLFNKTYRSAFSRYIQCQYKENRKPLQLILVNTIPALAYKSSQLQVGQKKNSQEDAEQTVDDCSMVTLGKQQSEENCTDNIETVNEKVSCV
pKi: −log10 of the molar value.
Each record here notes measured pKi.

Solved cases (5 shown):
CCc1ccccc1OCCNCCCCN1C(=O)C2CCCN2C1=O.Cl (stereo unspecified) | 6.44
COc1cccc(OCCNCCCCN2C(=O)C3CCCN3C2=O)c1 (stereo unspecified) | < 6.00
COc1cc(F)ccc1OCCNCCCCN1C(=O)C2CCCN2C1=O (stereo unspecified) | < 6.00
Cl.O=C1C2CCCN2C(=O)N1CCCCNCCOc1ccccc1 (stereo unspecified) | < 6.00
COc1ccc(OCCNCCCCN2C(=O)C3CCCN3C2=O)c2ccccc12 (stereo unspecified) | < 6.00

Shift focus to the following entry.
input: Give the measured pKi for Cl.O=C1C2CCCN2C(=O)N1CCCCNCCOc1cccc2ccccc12 (stereo unspecified)
output: 7.39
